Target: T1, human LAG-3 protein with hFc tag (hLAG-3-hFc protein) (human, UniProt P18627 23-450)
T1 construct: also called immunogen 1; LAG-3 extracellular domain protein; not shown: human IgG Fc fragment (hFc) of the pCpC vector
T1 sequence: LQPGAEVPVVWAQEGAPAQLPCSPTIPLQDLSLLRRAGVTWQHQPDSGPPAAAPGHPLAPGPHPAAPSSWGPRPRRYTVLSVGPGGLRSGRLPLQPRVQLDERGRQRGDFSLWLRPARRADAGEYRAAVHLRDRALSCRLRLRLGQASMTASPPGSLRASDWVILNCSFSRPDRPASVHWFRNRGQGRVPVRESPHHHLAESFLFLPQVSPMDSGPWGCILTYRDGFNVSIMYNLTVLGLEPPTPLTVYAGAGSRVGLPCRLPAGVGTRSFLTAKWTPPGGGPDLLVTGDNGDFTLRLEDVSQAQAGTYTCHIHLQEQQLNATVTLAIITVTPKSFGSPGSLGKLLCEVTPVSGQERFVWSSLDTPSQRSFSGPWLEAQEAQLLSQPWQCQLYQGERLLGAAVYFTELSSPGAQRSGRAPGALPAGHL
Test: FACS, blocks LAG-3-hFc binding to MHC II on Raji; 0.000 nM

binder	Inhibition rate (%)
556F6B8 (mouse antibody purified from hybridoma) (antibody, V domains shown, also called mAb123-556F6B8) VH: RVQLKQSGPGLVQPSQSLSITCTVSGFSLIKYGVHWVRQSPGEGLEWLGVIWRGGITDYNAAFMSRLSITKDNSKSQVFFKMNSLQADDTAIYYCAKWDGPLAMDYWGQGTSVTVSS VL: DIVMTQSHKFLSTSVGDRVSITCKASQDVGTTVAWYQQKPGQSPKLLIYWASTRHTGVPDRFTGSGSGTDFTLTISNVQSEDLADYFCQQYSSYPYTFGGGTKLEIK	-10.7
405B8H3 (mouse antibody purified from hybridoma) (antibody, V domains shown, also called mAb103-405B8H3; 405B81-13) VH: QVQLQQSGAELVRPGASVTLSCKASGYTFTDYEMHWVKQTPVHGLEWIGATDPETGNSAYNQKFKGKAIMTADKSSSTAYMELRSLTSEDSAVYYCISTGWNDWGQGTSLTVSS VL: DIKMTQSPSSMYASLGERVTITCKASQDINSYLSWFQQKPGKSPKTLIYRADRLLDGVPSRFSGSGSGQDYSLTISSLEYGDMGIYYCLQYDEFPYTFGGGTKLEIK	0.3
105F1E10 (mouse antibody purified from hybridoma) (antibody, V domains shown, also called mAb009-105F1E10) VH: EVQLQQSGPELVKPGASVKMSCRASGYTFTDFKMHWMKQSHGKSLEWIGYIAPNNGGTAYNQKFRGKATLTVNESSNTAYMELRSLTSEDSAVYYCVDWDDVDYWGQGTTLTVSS VL: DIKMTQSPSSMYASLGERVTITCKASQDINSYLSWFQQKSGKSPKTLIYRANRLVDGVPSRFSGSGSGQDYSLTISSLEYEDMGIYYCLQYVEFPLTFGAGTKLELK	-14
409B11E12 (mouse antibody purified from hybridoma) (antibody, V domains shown, also called mAb104-409B11E12) VH: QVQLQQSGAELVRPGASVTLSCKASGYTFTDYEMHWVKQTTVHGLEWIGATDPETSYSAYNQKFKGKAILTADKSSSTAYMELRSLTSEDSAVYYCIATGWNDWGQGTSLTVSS VL: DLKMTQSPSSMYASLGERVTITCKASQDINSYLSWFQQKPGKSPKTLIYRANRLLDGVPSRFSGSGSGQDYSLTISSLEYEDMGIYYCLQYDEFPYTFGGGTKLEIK	-21.2
409D4E10 (mouse antibody purified from hybridoma) (antibody, V domains shown, also called mAb112-409D4E10) VH: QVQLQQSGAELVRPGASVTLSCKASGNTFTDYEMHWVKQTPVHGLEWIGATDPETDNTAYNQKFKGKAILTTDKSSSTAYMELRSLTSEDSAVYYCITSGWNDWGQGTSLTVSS VL: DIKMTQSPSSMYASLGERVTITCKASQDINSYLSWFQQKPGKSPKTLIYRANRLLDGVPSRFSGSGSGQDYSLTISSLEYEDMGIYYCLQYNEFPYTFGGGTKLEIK	-21.4
